- Test system: MDR1 (P-gp), human
- RUN DESCRIPTION: Efflux ratio of permeability from basolateral to apical side over apical to basolateral side in MDCK cells harboring human MDR1
- Assay type: ADME, cell-based, Canis lupus familiaris
- CONDITION CONTEXT: dog
ASSAY ENDPOINT: efflux ratio
No unit in the answer, please; the number alone is enough.

Query: Note efflux ratio for the compound shown: CC(C)n1nc(-c2cnc(N)c(C(F)(F)F)c2)cc1[C@H]1[C@@H]2CN(CC(F)F)C[C@@H]21
Result: 0.3

----------
Listed below: IC50 values for each entry.
- TARGET SYSTEM: Mitogen-activated protein kinase 10 (Homo sapiens, UniProt P53779)
- Sequence (P53779 whole entry): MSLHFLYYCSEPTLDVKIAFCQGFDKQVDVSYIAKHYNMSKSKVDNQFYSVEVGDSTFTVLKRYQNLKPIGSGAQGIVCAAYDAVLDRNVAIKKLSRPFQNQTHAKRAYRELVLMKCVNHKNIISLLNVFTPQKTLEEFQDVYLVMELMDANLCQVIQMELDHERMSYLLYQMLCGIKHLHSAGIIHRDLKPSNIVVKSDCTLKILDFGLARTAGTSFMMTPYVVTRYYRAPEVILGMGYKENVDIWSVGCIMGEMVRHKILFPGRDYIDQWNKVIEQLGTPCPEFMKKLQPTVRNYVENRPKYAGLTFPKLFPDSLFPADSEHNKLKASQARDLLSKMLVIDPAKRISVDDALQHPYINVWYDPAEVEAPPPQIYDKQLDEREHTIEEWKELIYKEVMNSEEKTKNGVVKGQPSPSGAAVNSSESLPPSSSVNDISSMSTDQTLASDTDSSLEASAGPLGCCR
- RUN DESCRIPTION: Inhibition of recombinant full length GST-tagged human JNK3 expressed in baculovirus expression system by FRET assay

Nc1ncc(-c2cc([C@H]3[C@@H]4CN(C5COC5)C[C@@H]43)n(CC3CC3)n2)cc1C(F)(F)F
> 10 µM

Consider the additional compound presented here.
Query: Note IC50 for the compound shown: CC(C)n1nc(-c2cnc(N)c(OC(F)(F)F)c2)cc1[C@H]1[C@@H]2CN(C3COC3)C[C@@H]21
Result: > 10 µM
